# TEST_NAME: Brain distribution study in rats after single oral administration (brain homogenate, LC-MS/MS)
# Type: in vivo, male Sprague Dawley rats
# MEASUREMENT_PARAMETERS: Sprague Dawley, rat; brain; 5 mg/kg single oral; male SD rats; mean ± SD, n = 6
VALUE_TYPE: Cmax (ng/g)

COc1cc(N2CCC(N(C)C)CC2)ccc1Nc1ncc(Cl)c(Nc2ccccc2P(C)(C)=O)n1 [Brigatinib-analog]; 45.8
COc1cc(N2CCC(N3CCN(C)CC3)CC2)ccc1Nc1ncc(Cl)c(Nc2ccccc2P(C)(C)=O)n1 [Brigatinib]; 68.9

* * *

# TEST_NAME: Pharmacokinetic study in rats after single oral administration (plasma, LC-MS/MS)
# Format: in vivo, male Sprague Dawley rats
# MEASUREMENT_PARAMETERS: Sprague Dawley, rat, 5 mg/kg single oral, male SD rats, mean ± SD, n = 6
# Method: Seventy-two male Sprague Dawley rats weighing 180–220 g (7-8 weeks old, Certificate no. SCXK (Shandong) 2014-0007) were supplied by Shandong Laboratory Animal Center, Shandong First Medical University & Shandong Academy of Medical Sciences. […] Experimental data were expressed as mean ± standard deviation (SD). […] Differences between two groups were evaluated by the t-test. […]
VALUE_TYPE: Tmax (h)

COc1cc(N2CCC(N(C)C)CC2)ccc1Nc1ncc(Cl)c(Nc2ccccc2P(C)(C)=O)n1 [Brigatinib-analog]; 4.33
COc1cc(N2CCC(N3CCN(C)CC3)CC2)ccc1Nc1ncc(Cl)c(Nc2ccccc2P(C)(C)=O)n1 [Brigatinib]; 4.33

* * *

# TEST_NAME: Pharmacokinetic study in rats after single oral administration (plasma, LC-MS/MS)
# Type: in vivo, male Sprague Dawley rats
# MEASUREMENT_PARAMETERS: Sprague Dawley, rat, 5 mg/kg single oral, male SD rats, mean ± SD, n = 6
VALUE_TYPE: MRT (h)

COc1cc(N2CCC(N(C)C)CC2)ccc1Nc1ncc(Cl)c(Nc2ccccc2P(C)(C)=O)n1; 5.48
COc1cc(N2CCC(N3CCN(C)CC3)CC2)ccc1Nc1ncc(Cl)c(Nc2ccccc2P(C)(C)=O)n1; 6.73

* * *

# TEST_NAME: Brain distribution study in rats after single oral administration (brain homogenate, LC-MS/MS)
# Assay type: in vivo, male Sprague Dawley rats
# MEASUREMENT_PARAMETERS: Sprague Dawley, rat; brain; 5 mg/kg single oral; male SD rats; mean ± SD, n = 6
Catalogue of MRT readings, one per entry.
VALUE_TYPE: MRT (h)

COc1cc(N2CCC(N(C)C)CC2)ccc1Nc1ncc(Cl)c(Nc2ccccc2P(C)(C)=O)n1 [Brigatinib-analog]; 6.32
COc1cc(N2CCC(N3CCN(C)CC3)CC2)ccc1Nc1ncc(Cl)c(Nc2ccccc2P(C)(C)=O)n1 [Brigatinib]; 7.48

* * *

# TEST_NAME: Brain distribution study in rats after single oral administration (brain homogenate, LC-MS/MS)
# Assay type: in vivo, male Sprague Dawley rats
# MEASUREMENT_PARAMETERS: Sprague Dawley, rat; brain; 5 mg/kg single oral; male SD rats; mean ± SD, n = 6
Entries and their half-life
VALUE_TYPE: half-life (h)

COc1cc(N2CCC(N3CCN(C)CC3)CC2)ccc1Nc1ncc(Cl)c(Nc2ccccc2P(C)(C)=O)n1; 5.32
COc1cc(N2CCC(N(C)C)CC2)ccc1Nc1ncc(Cl)c(Nc2ccccc2P(C)(C)=O)n1; 4.27

* * *

List of CL/F values.
# TEST_NAME: Pharmacokinetic study in rats after single oral administration (plasma, LC-MS/MS)
# Type: in vivo, male Sprague Dawley rats
# MEASUREMENT_PARAMETERS: Sprague Dawley, rat, 5 mg/kg single oral, male SD rats, mean ± SD, n = 6, read-out: CL (CLz/F)
VALUE_TYPE: CL/F (mL/min/kg)

COc1cc(N2CCC(N(C)C)CC2)ccc1Nc1ncc(Cl)c(Nc2ccccc2P(C)(C)=O)n1; 21
COc1cc(N2CCC(N3CCN(C)CC3)CC2)ccc1Nc1ncc(Cl)c(Nc2ccccc2P(C)(C)=O)n1; 22

* * *

# TEST_NAME: Brain distribution study in rats after single oral administration (brain homogenate, LC-MS/MS)
# Assay type: in vivo, male Sprague Dawley rats
# MEASUREMENT_PARAMETERS: male, Sprague Dawley, rat; average AUC(0–t) brain to plasma; 5 mg/kg oral; rats; 1 g brain taken as 1 mL plasma; read-out: ratio of AUCbrain/AUCplasma
Each entry below carries its reported Kp.
VALUE_TYPE: Kp

COc1cc(N2CCC(N3CCN(C)CC3)CC2)ccc1Nc1ncc(Cl)c(Nc2ccccc2P(C)(C)=O)n1; 0.223
COc1cc(N2CCC(N(C)C)CC2)ccc1Nc1ncc(Cl)c(Nc2ccccc2P(C)(C)=O)n1; 0.088

* * *

# TEST_NAME: Pharmacokinetic study in rats after single oral administration (plasma, LC-MS/MS)
# Format: in vivo, male Sprague Dawley rats
# MEASUREMENT_PARAMETERS: Sprague Dawley, rat, 5 mg/kg single oral, male SD rats, mean ± SD, n = 6
Quick reference: Cmax of the listed items.
VALUE_TYPE: Cmax (ng/mL)

COc1cc(N2CCC(N(C)C)CC2)ccc1Nc1ncc(Cl)c(Nc2ccccc2P(C)(C)=O)n1; 734
COc1cc(N2CCC(N3CCN(C)CC3)CC2)ccc1Nc1ncc(Cl)c(Nc2ccccc2P(C)(C)=O)n1; 538

* * *

Each entry below carries its recorded AUC(0-t).
# TEST_NAME: Pharmacokinetic study in rats after single oral administration (plasma, LC-MS/MS)
# Type: in vivo, male Sprague Dawley rats
# MEASUREMENT_PARAMETERS: Sprague Dawley, rat, 5 mg/kg single oral, male SD rats, mean ± SD, n = 6
VALUE_TYPE: AUC(0-t) (µg·h/mL)

COc1cc(N2CCC(N3CCN(C)CC3)CC2)ccc1Nc1ncc(Cl)c(Nc2ccccc2P(C)(C)=O)n1; 4.36
COc1cc(N2CCC(N(C)C)CC2)ccc1Nc1ncc(Cl)c(Nc2ccccc2P(C)(C)=O)n1; 4.37

* * *

# TEST_NAME: Brain distribution study in rats after single oral administration (brain homogenate, LC-MS/MS)
# Assay type: in vivo, male Sprague Dawley rats
# MEASUREMENT_PARAMETERS: Sprague Dawley, rat; brain; 5 mg/kg single oral; male SD rats; mean ± SD, n = 6
# Procedure: Seventy-two male Sprague Dawley rats weighing 180–220 g (7-8 weeks old, Certificate no. SCXK (Shandong) 2014-0007) were supplied by Shandong Laboratory Animal Center, Shandong First Medical University & Shandong Academy of Medical Sciences. […] Experimental data were expressed as mean ± standard deviation (SD). […] Differences between two groups were evaluated by the t-test. […]
Reported Tmax values for a set of compounds
VALUE_TYPE: Tmax (h)

COc1cc(N2CCC(N(C)C)CC2)ccc1Nc1ncc(Cl)c(Nc2ccccc2P(C)(C)=O)n1; 4
COc1cc(N2CCC(N3CCN(C)CC3)CC2)ccc1Nc1ncc(Cl)c(Nc2ccccc2P(C)(C)=O)n1; 5.5
